- experimentSummary: Pharmacokinetics of rivaroxaban in rats after avitinib or gefitinib pretreatment
- Format: in vivo, Sprague–Dawley (SD) rats
- testParameters: male, Sprague-Dawley, rat, plasma, po, 10 mg/kg, avitinib group, Mean; read-out: Cmax
measuredMetric: Cmax (ng/mL)
Expressed in ng/mL, but write only the number.

The recorded Cmax for entry `O=C(NC[C@H]1CN(c2ccc(N3CCOCC3=O)cc2)C(=O)O1)c1ccc(Cl)s1` equals 1810

* * *

- experimentSummary: Pharmacokinetics of rivaroxaban in rats after avitinib or gefitinib pretreatment
- Assay type: in vivo, Sprague–Dawley (SD) rats
- testParameters: male, Sprague-Dawley, rat, plasma, oral, plasma concentration of rivaroxaban, 1 h; avitinib group, Mean
measuredMetric: concentration at 1 h (ng/mL)
Report the figure in ng/mL without appending any unit label.

concentration at 1 h recorded for this molecule, `O=C(NC[C@H]1CN(c2ccc(N3CCOCC3=O)cc2)C(=O)O1)c1ccc(Cl)s1` , is 1730

* * *

- experimentSummary: Pharmacokinetics of rivaroxaban in rats after avitinib or gefitinib pretreatment
- Format: in vivo, Sprague–Dawley (SD) rats
- testParameters: male, Sprague-Dawley, rat, plasma, oral, plasma concentration of rivaroxaban, 0.25 h; gefitinib group, single rats No1-No6
- Description: Eighteen male Sprague–Dawley (SD) rats weighing 300 ± 20 g were provided by the Experimental Animal Center of Wenzhou Medical University (Wenzhou, China) and kept under controlled conditions at a temperature of 23 ± 2 °C, relative humidity of 50 ± 10%, and 12 h light–dark cycle. Eighteen male SD rats were randomly assigned to three groups: avitinib, gefitinib, and control, with six rats per group. […] All assays were performed in triplicate, and the results are expressed as mean ± standard deviation. […]
measuredMetric: concentration at 0.25 h

Record summary for O=C(NC[C@H]1CN(c2ccc(N3CCOCC3=O)cc2)C(=O)O1)c1ccc(Cl)s1 [rivaroxaban, Rivaroxaban] : reported concentration at 0.25 h = 1690 ng/mL

* * *

- experimentSummary: Pharmacokinetics of rivaroxaban in rats after avitinib or gefitinib pretreatment
- Type: in vivo, Sprague–Dawley (SD) rats
- testParameters: male, Sprague-Dawley, rat, plasma, oral, plasma concentration of rivaroxaban, 0.5 h; gefitinib group, single rats No1-No6
measuredMetric: concentration at 0.5 h (ng/mL)
# unit: ng/mL | format: bare number

Per the records, this molecule ( `O=C(NC[C@H]1CN(c2ccc(N3CCOCC3=O)cc2)C(=O)O1)c1ccc(Cl)s1` ) has concentration at 0.5 h equal to 4080

* * *

- experimentSummary: Pharmacokinetics of rivaroxaban in rats after avitinib or gefitinib pretreatment
- Type: in vivo, Sprague–Dawley (SD) rats
- testParameters: male, Sprague-Dawley, rat, plasma, po, 10 mg/kg, gefitinib group, single rats No1-No6; read-out: AUC(0-t)
measuredMetric: AUC(0-t)

Given item O=C(NC[C@H]1CN(c2ccc(N3CCOCC3=O)cc2)C(=O)O1)c1ccc(Cl)s1 [rivaroxaban, Rivaroxaban] , the value recorded as its AUC(0-t) is 62400 ng·h/mL

* * *

- experimentSummary: Pharmacokinetics of rivaroxaban in rats after avitinib or gefitinib pretreatment
- Type: in vivo, Sprague–Dawley (SD) rats
- testParameters: male, Sprague-Dawley, rat, plasma, po, 10 mg/kg, gefitinib group, single rats No1-No6; read-out: CLz/F (converted)
- Method: Eighteen male Sprague–Dawley (SD) rats weighing 300 ± 20 g were provided by the Experimental Animal Center of Wenzhou Medical University (Wenzhou, China) and kept under controlled conditions at a temperature of 23 ± 2 °C, relative humidity of 50 ± 10%, and 12 h light–dark cycle. Eighteen male SD rats were randomly assigned to three groups: avitinib, gefitinib, and control, with six rats per group. […] All assays were performed in triplicate, and the results are expressed as mean ± standard deviation. […]
measuredMetric: CL/F (mL/min/kg)
Give just the numeric value; mL/min/kg need not be written.

CL/F in this record for O=C(NC[C@H]1CN(c2ccc(N3CCOCC3=O)cc2)C(=O)O1)c1ccc(Cl)s1 [rivaroxaban, Rivaroxaban] : 1.53

* * *

- experimentSummary: Pharmacokinetics of rivaroxaban in rats after avitinib or gefitinib pretreatment
- Format: in vivo, Sprague–Dawley (SD) rats
- testParameters: male, Sprague-Dawley, rat, plasma, oral, gefitinib group, Mean; read-out: C_last
measuredMetric: concentration at 12 h
# answer = value followed by unit

For record O=C(NC[C@H]1CN(c2ccc(N3CCOCC3=O)cc2)C(=O)O1)c1ccc(Cl)s1 [rivaroxaban, Rivaroxaban] the listed concentration at 12 h is 2070 ng/mL

* * *

- experimentSummary: Pharmacokinetics of rivaroxaban in rats after avitinib or gefitinib pretreatment
- Assay type: in vivo, Sprague–Dawley (SD) rats
- testParameters: male, Sprague-Dawley, rat, plasma, po, 10 mg/kg, rats, rivaroxaban 10 mg/kg oral; gefitinib group (25 mg/kg pretreatment); read-out: MRT(0–∞)
measuredMetric: MRT inf

Just so you know, measured MRT inf for `O=C(NC[C@H]1CN(c2ccc(N3CCOCC3=O)cc2)C(=O)O1)c1ccc(Cl)s1` came out at 8.23 h

* * *

- experimentSummary: Pharmacokinetics of rivaroxaban in rats after avitinib or gefitinib pretreatment
- Assay type: in vivo, Sprague–Dawley (SD) rats
- testParameters: male, Sprague-Dawley, rat, plasma, po, 10 mg/kg, rats, rivaroxaban 10 mg/kg oral; avitinib group (30 mg/kg pretreatment); read-out: Cmax
measuredMetric: Cmax (ng/mL)
Numeric answer only, unit ng/mL assumed.

Note to self: Cmax recorded for O=C(NC[C@H]1CN(c2ccc(N3CCOCC3=O)cc2)C(=O)O1)c1ccc(Cl)s1 [rivaroxaban, Rivaroxaban] was 1810

* * *

- experimentSummary: Pharmacokinetics of rivaroxaban in rats after avitinib or gefitinib pretreatment
- Format: in vivo, Sprague–Dawley (SD) rats
- testParameters: male, Sprague-Dawley, rat, plasma, po, 10 mg/kg, rats, rivaroxaban 10 mg/kg oral; gefitinib group (25 mg/kg pretreatment); read-out: t1/2 (converted)
measuredMetric: half-life (h)
Field: numeric (h). Do not append units.

Recorded half-life (molecule `O=C(NC[C@H]1CN(c2ccc(N3CCOCC3=O)cc2)C(=O)O1)c1ccc(Cl)s1` ): 4.81

* * *

- experimentSummary: Pharmacokinetics of rivaroxaban in rats after avitinib or gefitinib pretreatment
- Type: in vivo, Sprague–Dawley (SD) rats
- testParameters: male, Sprague-Dawley, rat, plasma, oral, 10 mg/kg, rivaroxaban ng/ml mean, control (rivaroxaban alone) group, mean of rats 13-18, time 3
measuredMetric: concentration at 3 h

# concentration at 3 h of O=C(NC[C@H]1CN(c2ccc(N3CCOCC3=O)cc2)C(=O)O1)c1ccc(Cl)s1 [rivaroxaban, Rivaroxaban] = 291 ng/mL

* * *

- experimentSummary: Pharmacokinetics of rivaroxaban in rats after avitinib or gefitinib pretreatment
- Type: in vivo, Sprague–Dawley (SD) rats
- testParameters: male, Sprague-Dawley, rat, plasma, oral, rivaroxaban ng/ml, 艾维替尼 (avitinib) group, individual rats 1-6, time 0.0833
measuredMetric: concentration at 5 min (ng/mL)
Hi! Could you send only the number? It should be in ng/mL, unit omitted.

The compound listed as `O=C(NC[C@H]1CN(c2ccc(N3CCOCC3=O)cc2)C(=O)O1)c1ccc(Cl)s1` shows concentration at 5 min equal to 237

* * *

- experimentSummary: Pharmacokinetics of rivaroxaban in rats after avitinib or gefitinib pretreatment
- Format: in vivo, Sprague–Dawley (SD) rats
- testParameters: male, Sprague-Dawley, rat, plasma, oral, rivaroxaban ng/ml mean, 艾维替尼 (avitinib) group, mean of rats 1-6, time 4
- Description: Eighteen male Sprague–Dawley (SD) rats weighing 300 ± 20 g were provided by the Experimental Animal Center of Wenzhou Medical University (Wenzhou, China) and kept under controlled conditions at a temperature of 23 ± 2 °C, relative humidity of 50 ± 10%, and 12 h light–dark cycle. Eighteen male SD rats were randomly assigned to three groups: avitinib, gefitinib, and control, with six rats per group. […] All assays were performed in triplicate, and the results are expressed as mean ± standard deviation. […]
measuredMetric: concentration at 4 h (ng/mL)
# number only, unit ng/mL dropped from output

Recorded concentration at 4 h (compound `O=C(NC[C@H]1CN(c2ccc(N3CCOCC3=O)cc2)C(=O)O1)c1ccc(Cl)s1` ): 1010

* * *

- experimentSummary: Pharmacokinetics of rivaroxaban in rats after avitinib or gefitinib pretreatment
- Assay type: in vivo, Sprague–Dawley (SD) rats
- testParameters: male, Sprague-Dawley, rat, plasma, po, 10 mg/kg, avitinib group, single rats No1-No6
measuredMetric: Tmax (h)
# output: bare number, implied unit h

The compound identified as `O=C(NC[C@H]1CN(c2ccc(N3CCOCC3=O)cc2)C(=O)O1)c1ccc(Cl)s1` registered its Tmax at 1

* * *

- experimentSummary: Pharmacokinetics of rivaroxaban in rats after avitinib or gefitinib pretreatment
- Type: in vivo, Sprague–Dawley (SD) rats
- testParameters: male, Sprague-Dawley, rat, plasma, oral, rivaroxaban ng/ml mean, 艾维替尼 (avitinib) group, mean of rats 1-6, time 1
measuredMetric: concentration at 1 h

The recorded concentration at 1 h for entry `O=C(NC[C@H]1CN(c2ccc(N3CCOCC3=O)cc2)C(=O)O1)c1ccc(Cl)s1` equals 1730 ng/mL
